Provenance of the data: patent US7494996B2

- Tested on: Mexican Bean Beetle
- Method description: Protocol 1 Mexican Bean Beetle (BB) foliar spray test
- Format: in vivo, Epilachna verivestis
- Applied conditions: Protocol 1, DOSE 150; control rated after 48 hours (100 = all larvae dead)
Reported property: BB
Number only, no unit.

Example compounds with recorded BB:
CCCC(C)n1nc(-c2ccc(Cl)cc2)ncc1=O (stereo not drawn) = 100
O=C1CNC(Cc2ccccc2)=NN1CC(F)(F)F = 0
O=C1CNC(c2ccccn2)=NN1CC(F)(F)F = 0

[ask] State the recorded BB for this entry: O=c1cnc(Cc2ccccc2)nn1CC(F)(F)F
[reply] 0

[ask] What do you get for CCCCN1N=C(c2ccc(Cl)cc2)NCC1=O ?
[reply] 0

* * *

- Test system: Two-Spotted Spider Mite
- Method description: Protocol 1 Two-Spotted Spider Mite (MTA) foliar spray test
- Format: in vivo, Tetranychus urticae
- Applied conditions: Protocol 1, DOSE 150; percentage of mites killed 1-day post-treatment
Reported property: MTA (%)
Numeric answer only, unit % assumed.

C#CCOC(=O)N1CC(=O)N(CCCC)N=C1c1cc(Cl)cc(Cl)c1 = 0

[ask] State the recorded MTA for this entry: CCCCN1N=C(c2ccc(Cl)cc2)NCC1=O
[reply] 75

[ask] What do you get for O=c1cnc(Cc2ccccc2)nn1CC(F)(F)F ?
[reply] 90

[ask] What do you get for O=C1CNC(Cc2ccccc2)=NN1CC(F)(F)F ?
[reply] 0

* * *

Let's look at some compounds and their measured BB.
- System: Mexican Bean Beetle
- Method description: Protocol 1 Mexican Bean Beetle (BB) foliar spray test
- Type: in vivo, Epilachna verivestis
- Applied conditions: Protocol 1, DOSE 300; control rated after 48 hours (100 = all larvae dead)
Number only, no unit.

Example compounds with recorded BB:
Cc1ccc(C2=NN(CC(F)(F)F)C(=O)CN2)cc1 = 50
CC(C)(C)N1N=C(c2ccc(Cl)cc2)NCC1=O = 100
O=c1cnc(-c2ccccc2)nn1CC(F)(F)F = 100
Cn1nc(-c2ccc(Cl)cc2)ncc1=O = 75
CCn1nc(-c2ccc(Cl)cc2)ncc1=O = 100
O=c1cnc(-c2ccc(Cl)cc2)nn1CC(F)(F)F = 75
CN1N=C(c2ccc(Cl)cc2)NCC1=O = 75
Cn1nc(-c2ccccc2)ncc1=O = 90

[ask] State the recorded BB for this entry: CCCCCn1nc(-c2ccc(Cl)cc2)ncc1=O
[reply] 0

[ask] What do you get for C=CCn1nc(-c2ccc(Cl)cc2)ncc1=O ?
[reply] 100

[ask] What do you get for Cc1ccc(-c2ncc(=O)n(CC(F)(F)F)n2)cc1 ?
[reply] 90

[ask] What do you get for O=C1CNC(c2ccc(Cl)cc2)=NN1 ?
[reply] 75

[ask] What do you get for O=C1CNC(c2ccccc2)=NN1CC(F)(F)F ?
[reply] 100

[ask] What do you get for Cc1nc(-c2ccc(Cl)cc2)nn(CC(F)(F)F)c1=O ?
[reply] 75

[ask] What do you get for O=c1cnc(-c2cccc(Cl)c2)nn1CC(F)(F)F ?
[reply] 100

[ask] What do you get for O=C1CNC(c2ccc(Cl)cc2)=NN1CC(F)(F)F ?
[reply] 0

[ask] What do you get for CC(C)(C)n1nc(-c2ccc(Cl)cc2)ncc1=O ?
[reply] 0

* * *

- Test system: Two-Spotted Spider Mite
- Method description: Protocol 1 Two-Spotted Spider Mite (MTA) foliar spray test
- Format: in vivo, Tetranychus urticae
- Applied conditions: Protocol 1, DOSE 150; percentage of mites killed 1-day post-treatment
Reported property: MTA (%)
Numeric answer only, unit % assumed.

Example compounds with recorded MTA:
CCCCn1nc(-c2ccc(Cl)c(Cl)c2)ncc1=O [Compound 270] = 0
COc1cccc(-c2ncc(=O)n(CC(F)(F)F)n2)c1 [Compound 252] = 50
O=c1cnc(-c2ccc(Cl)cc2)nn1Cc1ccc(Cl)s1 [Compound 266] = 0

[ask] State the recorded MTA for this entry: CCCCCCCCn1nc(-c2ccc(Cl)cc2)ncc1=O [Compound 259]
[reply] 0

[ask] What do you get for O=C1CN(Cc2ccc(Cl)s2)C(c2ccc(Cl)cc2)=NN1Cc1ccc(Cl)s1 [Compound 63] ?
[reply] 0

[ask] What do you get for COC(=O)C(=O)N1CC(=O)N(CC(F)(F)F)N=C1c1cc(Cl)cc(Cl)c1 [Compound 123] ?
[reply] 0

[ask] What do you get for CCCCN1N=C(c2cccc(Cl)c2)NCC1=O [Compound 110] ?
[reply] 100

[ask] What do you get for C[Si](C)(C)Cn1nc(-c2ccc(Cl)cc2)ncc1=O [Compound 265] ?
[reply] 0

[ask] What do you get for O=C1CNC(c2cc3ccccc3s2)=NN1CC(F)(F)F [Compound 163] ?
[reply] 100
